- experimental system: pooled human IgG
measure name: Enzyme Activity Endpoint Assay (purified): IgG (ng/µL)
Enter your answer as a number in ng/µL; do not include the unit.

Q: Output Enzyme Activity Endpoint Assay (purified): IgG of PRT-149 (protein) MANQEIRYSEVTPYHVTSVWTKGVTPPANFTQGEDVFHAPYVANQGWYDITKTFNGKDDLLCGAATAGNMLHWWFDQNKDQIKRYLEEHPEKQKINFNGEQMFDVKEAIDTKNHQLDSKLFEYFKEKAFPYLSTKHLGVFPDHVIDMFINGYRLSLTNHGPTPVKRQTKDPRGGIFDAVFGRGDQTKLLTSRHDFKEKNLKEISDLIKKELTEGKALGLSHTYANVRINHVINLWGADFDSNGNLKAIYVTDSDSNASIGMKKYFVGVNSAGKVAISAKEIKEDNIGAQVLGLFTLSTGQKSWNKTN
Result: 0

Q: Read off the recorded Enzyme Activity Endpoint Assay (purified): IgG for PRT-72 (protein) MANQEIRYSEVTPYHVTSVWTKGVTPPAKFTQGEDVFHAPYVANQGWYDITKTFNGKDDLLCGAATAGNMLHWWFDQNKEYIEAYLKKHPEKQKIMFGDQELLDVRKVINTKGDQTNSELFNYFRDKAFPYLSARRLGVMPDLVLDMFINGYYLNVTKTQTTDVNRTYQEKDRRGGIFDAVFTRGDQSKLLTSRHDFKEKNLKEISDLIKKELTEGKALGLSHTYANVRINHVINLWGADFDSNGNLKAIYVTDSDSNASIGMKKYFVGVNSAGKVAISAKEIKEDNIGAQVLGLFTLSTGQDIWNQTN
Result: 14

Recorded values, source patent US20250027068.
